// data source = PubChem BioAssay (NCI)

Test system: LOX IMVI melanoma
Experiment: NCI-60 one-dose screen, 48 h
Condition summary: 10 µM unless noted
This is part of a sample that, as a whole, favours compounds with a hit. Of some 83,000 tested, about 20% had one in any assay. Activity calls are given as the source filed them. How the source made its calls: active means growth percent below 10; inactive means the rest.
Bench note: report the call from yes (1) = active, no (0) = inactive

Worked examples, 3 molecules total:
[
  {
    "Smiles structure": "O=C(Nc1ccc2[nH]c3ccccc3c2c1)c1ccccc1Cl",
    "Target entity": "LOX IMVI melanoma",
    "Category label": "no (0)"
  },
  {
    "Smiles structure": "C[C@]12CCc3nc(Nc4ccc(O)cc4)sc3C1=CC[C@@H]1[C@@H]2CC[C@]2(C)/C(=N/NC(N)=S)CC[C@@H]12",
    "Target entity": "LOX IMVI melanoma",
    "Category label": "yes (1)"
  },
  {
    "Smiles structure": "O=C(Nc1ccccc1Cl)Oc1ccc2ccccc2c1",
    "Target entity": "LOX IMVI melanoma",
    "Category label": "no (0)"
  }
]

Now take the following molecule into account.
For this molecule, state the assay outcome: CN1CCN(c2ccc(N3Cc4ccccc4OC4=C3C(=O)c3c(O)ccc(O)c3C4=O)cn2)CC1
yes (1)

###

Test system: DU-145 prostate
Experiment: NCI-60 one-dose screen, 48 h
Condition summary: 10 µM unless noted
This is part of a sample that, as a whole, favours compounds with a hit. Of some 83,000 tested, about 20% had one in any assay. The source made the active and inactive calls. The calls were made as follows: active = growth percent below 10; inactive = the rest.
Bench note: report the call from active, inactive

Worked examples, 3 compounds total:
[
  {
    "Compound": "O=C(C(=O)c1cccnc1)c1cccnc1",
    "Category label": "inactive"
  },
  {
    "Compound": "O=C1OCC2=C1C(c1ccc(Cl)c(Cl)c1)c1cc3c(cc1N2CCO)CCC3 (centres undefined)",
    "Category label": "active"
  },
  {
    "Compound": "O=C(Nc1ccc2[nH]c3ccccc3c2c1)c1ccccc1Cl",
    "Category label": "inactive"
  }
]

For this compound, state the assay outcome: CCSc1ccc([C@@H]2[C@@H](N)C(=O)N2c2cc(OC)c(OC)c(OC)c2)cc1
inactive
